Sourced from PubChem BioAssay (NCATS)

PROTOCOL_CONDITIONS: Ebola virus entry assay, green fluorescence channel
Results with a measured potency or affinity are listed apart.
Checkbox rule: efficacy lower than -20% = Y; efficacy not lower than -20% = N.

Solved cases (6 shown):
>>> group_label("C[C@@H](O)[C@H]1C(=O)N2C(C(=O)O)=C(S[C@@H]3CN[C@H](C(=O)N(C)C)C3)[C@H](C)[C@H]12")
"N"
>>> group_label("O=P(O)(O)C(O)(Cc1cccnc1)P(=O)(O)O")
"N"
>>> group_label("CCCc1nc2c(C)cc(-c3nc4ccccc4n3C)cc2n1Cc1ccc(-c2ccccc2C(=O)O)cc1")
"N"
>>> group_label("O=c1[nH]cnc2c1ncn2[C@H]1CC[C@@H](CO)O1")
"N"
>>> group_label("CC(S)C(=O)NCC(=O)O (stereo not given)")
"Y"
>>> group_label("COc1ccc2c(c1OC)CN1CCc3cc4c(cc3C1C2)OCO4 (stereo not given)")
"Y"

stdin: Confirm or reject: efficacy of Nc1ccc(O)c(C(=O)O)c1 lies strictly below -20%
stdout: N

stdin: // next record CN(C)CC/C=C1\c2ccccc2COc2ccccc21
stdout: N

stdin: // next record Clc1ccc(COC(Cn2ccnc2)c2ccc(Cl)cc2Cl)cc1 (stereo not given)
stdout: Y

stdin: // next record CC(C)(C)CC(C)(C)c1ccc(O)cc1
stdout: Y

stdin: // next record COC(c1ccccc1)(c1ccccc1)[C@H](Oc1nc(C)cc(C)n1)C(=O)O
stdout: N

====

EXPERIMENT: Cell Viability - MRC5 (AID 434);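 also: potency is read from the fitted curve at half-maximal effect; cells exposed to compound for 40 hours at 37 °C; potency reflects cytotoxicity seen as loss of intracellular ATP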
PROTOCOL_CONDITIONS: MRC5 lung fibroblast viability, qHTS
Records with an inconclusive call do not appear. Calls of active or inactive are those of the source. The call rests on the fitted dose curve.
READOUT_NAME: Potency

>>> reading("CCOP(=S)(OCC)Oc1cc(C)nc(C(C)C)n1")
"> 92 µM (inactive)"
>>> reading("NCC(O)c1ccc(O)cc1 (configuration not stated)")
"> 92 µM (inactive)"
>>> reading("Clc1ccc(COC(Cn2ccnc2)c2ccc(Cl)cc2Cl)cc1 (configuration not stated)")
"95 µM (inactive)"

Give Potency for all molecules that follow.
1. c1ccc2c(c1)Nc1ccccc1S2
2. C[C@]12C/C(=C/O)C(=O)C[C@@H]1CC[C@@H]1[C@@H]2CC[C@@]2(C)[C@H]1CC[C@]2(C)O
3. OCCOc1ccccc1
4. CNCC(O)c1ccc(O)cc1 (configuration not stated)

stdout:
["> 92 µM (inactive)", "> 92 µM (inactive)", "> 92 µM (inactive)", "> 92 µM (inactive)"]

====

Test system: CP217
EXPERIMENT: qHTS profiling for inhibitors of Plasmodium falciparum proliferation (AID 504749); also: nearly all actives have a fitted effect of over 60% in size
PROTOCOL_CONDITIONS: P. falciparum in erythrocytes, SYBR Green DNA, 72 h; series mostly up to 28.7 µM
Inconclusive results are not listed. Active and inactive are the calls of the source. Calls follow the shape of the dose curve; as a rule, active = well fitted inhibition curve with a large enough effect; inconclusive = small, poorly fitted or top-dose-only effect; inactive = flat fitted curve, though single readings scatter.
I would appreciate it if you answered using one of these outcomes: Y for active, N for inactive

>>> group_label("Cc1ccc(-c2nc3ccc(C)cn3c2CC(=O)N(C)C)cc1")
"N"
>>> group_label("CC(C)NCC(O)c1ccccc1Cl (stereo unspecified)")
"Y"
>>> group_label("CCN(CC)CCOC(=O)C(O)(c1ccccc1)c1ccccc1")
"N"
>>> group_label("COc1ccc(C(=O)c2c(C)n(CCN3CCOCC3)c3ccccc23)cc1")
"N"
>>> group_label("CCCC(C)(COC(N)=O)COC(=O)NC(C)C (stereo unspecified)")
"N"

stdin: Please state the recorded outcome for this compound: CC[N+]1(C)CCCC(OC(=O)C(O)(c2ccccc2)c2ccccc2)C1 (stereo unspecified)
stdout: N
